// provenance: patent US5202315A

Below, each of the molecules is paired with its reported concentration at 1 min value.
# method notes: In-vivo absorbency (plasma concentrations & pharmacokinetic parameters)
# Parameters: species or system SD rat (male)
# experimental conditions: plasma; 1 min; SD male rat, iv 20 mg/kg; read-out: Plasma Conc.
Lab note: write values as number then unit, every time.

CC(C)(O/N=C(\C(=O)NC1C(=O)N2C(C(=O)[O-])=C(CSc3nc(N)cc(N)[n+]3N)CS[C@H]12)c1csc(N)n1)C(=O)O (stereo partly drawn) [Compound I-15] ... 148 µg/mL
CC[n+]1c(N)cc(N)nc1SCC1=C(C(=O)[O-])N2C(=O)C(NC(=O)/C(=N\OC(C)C(=O)O)c3csc(N)n3)C2SC1 (stereo not drawn) [Compound I-5] ... 134 µg/mL

Continue with the molecule presented below.
Look up concentration at 1 min: CC(O/N=C(\C(=O)NC1C(=O)N2C(C(=O)[O-])=C(CSc3nc(N)cc(N)[n+]3C)CSC12)c1csc(N)n1)C(=O)O (stereo not drawn) [Compound I-4]
64 µg/mL

----------
Below, each of the compounds is paired with its reported half-life value.
# method notes: In-vivo absorbency (plasma concentrations & pharmacokinetic parameters)
# Parameters: species or system SD rat (male)
# experimental conditions: rat, plasma, iv, 20 mg/kg, SD male rat, iv 20 mg/kg; two compartment model; read-out: T1/2 (β)
Respond numerically; units are min and should not be typed.

Observe how each entry below is paired with its result.
CC(C)(O/N=C(\C(=O)NC1C(=O)N2C(C(=O)[O-])=C(CSc3nc(N)cc(N)[n+]3N)CS[C@H]12)c1csc(N)n1)C(=O)O (some centres unmarked) [Compound I-15] ... 29
CC[n+]1c(N)cc(N)nc1SCC1=C(C(=O)[O-])N2C(=O)C(NC(=O)/C(=N\OC(C)C(=O)O)c3csc(N)n3)C2SC1 (centres unmarked) [Compound I-5] ... 36
Cc1c(N)nc(SCC2=C(C(=O)[O-])N3C(=O)C(NC(=O)/C(=N\OC(C)(C)C(=O)O)c4csc(N)n4)C3SC2)[n+](N)c1N (centres unmarked) [Compound I-34] ... 21
C[n+]1c(N)cc(N)nc1SCC1=C(C(=O)[O-])N2C(=O)C(NC(=O)/C(=N\OC(C)(C)C(=O)O)c3csc(N)n3)[C@H]2SC1 (some centres unmarked) [Compound I-1] ... 26
CC[n+]1c(N)cc(N)nc1SCC1=C(C(=O)[O-])N2C(=O)C(NC(=O)/C(=N\OC(C)(C)C(=O)O)c3csc(N)n3)C2SC1 (centres unmarked) [Compound I-2] ... 23

Look up half-life: CCc1c(N)nc(SCC2=C(C(=O)[O-])N3C(=O)C(NC(=O)/C(=N\OC(C)(C)C(=O)O)c4csc(N)n4)C3SC2)[n+](C)c1N (centres unmarked) [Compound I-31]
27

Now the same for CCO/N=C(\C(=O)NC1C(=O)N2C(C(=O)[O-])=C(CSc3nc(N)cc(N)[n+]3N)CSC12)c1csc(N)n1 (centres unmarked) [Compound I-16]
24

Now the same for C[n+]1c(N)cc(N)nc1SCC1=C(C(=O)[O-])N2C(=O)C(NC(=O)/C(=N\OCC(=O)O)c3csc(N)n3)C2SC1 (centres unmarked) [Compound I-7]
26

----------
# Tested on: Salmonella typhimurium ATCC 14028
# method notes: Antibacterial activity, MIC
# Assay type: cell-based
# experimental conditions: Salmonella enterica; ATCC 14028; agar two-fold dilution, 37° C., 20 hours; read-out: MIC
# Method: Also, the in vitro antibacterial activity was determined by the by a two-fold dilution method as described below: That is, the two-fold serial dilutions of the compound were made dispersed in Muller-Hinton agar medium. 2 μl of standard test strain which had the 10^7 CFU per ml was inoculated on the medium, and was incubated at 37° C. for 20 hours.
Below, each of the compounds is paired with its reported MIC value.
Respond numerically; units are µg/mL and should not be typed.

CCC[n+]1c(N)cc(N)nc1SCC1=C(C(=O)[O-])N2C(=O)C(NC(=O)/C(=N\OC(C)(C)C(=O)O)c3nsc(N)n3)C2SC1 (stereo not drawn) ... 0.5
CCO/N=C(\C(=O)NC1C(=O)N2C(C(=O)[O-])=C(CSc3nc(N)cc(N)[n+]3CC)CSC12)c1csc(N)n1 (stereo not drawn) ... 0.5

Continue with the compound presented below.
Look up MIC: C=CC[n+]1c(N)cc(N)nc1SCC1=C(C(=O)[O-])N2C(=O)C(NC(=O)/C(=N\OC(C)(C)C(=O)O)c3csc(N)n3)C2SC1 (stereo not drawn)
0.25

----------
# Test system: Staphylococcus aureus methicillin susceptible
# method notes: Antibacterial activity against clinically isolated strains, MIC
# Type: cell-based
# experimental conditions: methicillin susceptible, 42 clinical isolates, broth microdilution test
Below, each of the compounds is paired with its reported MIC50 value.
Respond numerically; units are µg/mL and should not be typed.

Observe how each entry below is paired with its result.
C#CCO/N=C(\C(=O)NC1C(=O)N2C(C(=O)[O-])=C(CSc3nc(N)cc(N)[n+]3N)CSC12)c1csc(N)n1 (centres unmarked) [Compound I-18] ... 0.25
C#CCO/N=C(\C(=O)NC1C(=O)N2C(C(=O)[O-])=C(CSc3nc(N)cc(N)[n+]3CC)CSC12)c1csc(N)n1 (centres unmarked) [Compound I-47] ... 0.25
Cc1c(N)nc(SCC2=C(C(=O)[O-])N3C(=O)C(NC(=O)/C(=N\OC(C)(C)C(=O)O)c4csc(N)n4)C3SC2)[n+](C)c1N (centres unmarked) [Compound I-30] ... 2

Look up MIC50: CC(O/N=C(\C(=O)NC1C(=O)N2C(C(=O)[O-])=C(CSc3nc(N)cc(N)[n+]3C)CSC12)c1csc(N)n1)C(=O)O (centres unmarked) [Compound I-4]
4

Now the same for CCO/N=C(\C(=O)NC1C(=O)N2C(C(=O)[O-])=C(CSc3nc(N)cc(N)[n+]3N)CSC12)c1nsc(N)n1 (centres unmarked) [Compound I-17]
0.5

----------
Consider molecules characterized by their MIC with Escherichia coli ATCC 10536.
Respond numerically; units are µg/mL and should not be typed.

Observe how each entry below is paired with its result.
CC(C)(O/N=C(\C(=O)NC1C(=O)N2C(C(=O)[O-])=C(CSc3nc(N)cc(N)[n+]3N)CS[C@H]12)c1csc(N)n1)C(=O)O (stereo partly drawn) [Compound I-15] ... 0.063
CC(C)(O/N=C(\C(=O)N[C@@H]1C(=O)N2C(C(=O)[O-])=C(C[n+]3ccccc3)CS[C@H]12)c1csc(N)n1)C(=O)O [Ceftazidime, reference compound] ... 0.13
CC(O/N=C(\C(=O)NC1C(=O)N2C(C(=O)[O-])=C(CSc3nc(N)cc(N)[n+]3N)CSC12)c1csc(N)n1)C(=O)O (stereo not drawn) [Compound I-14] ... 0.031
C#CCO/N=C(\C(=O)NC1C(=O)N2C(C(=O)[O-])=C(CSc3nc(N)cc(N)[n+]3CC)CSC12)c1csc(N)n1 (stereo not drawn) [Compound I-47] ... 0.13
CC[n+]1c(N)cc(N)nc1SCC1=C(C(=O)[O-])N2C(=O)C(NC(=O)/C(=N\OC(C)C(=O)O)c3csc(N)n3)C2SC1 (stereo not drawn) [Compound I-5] ... 0.063

Continue with the molecule presented below.
Look up MIC: CCc1c(N)nc(SCC2=C(C(=O)[O-])N3C(=O)C(NC(=O)/C(=N\OC(C)(C)C(=O)O)c4csc(N)n4)C3SC2)[n+](C)c1N (stereo not drawn) [Compound I-31]
0.063

----------
# method notes: In-vivo absorbency (plasma concentrations & pharmacokinetic parameters)
# Design: species or system SD rat (male)
# experimental conditions: plasma; 40 min; SD male rat, iv 20 mg/kg; read-out: Plasma Conc.
// Condition not met strictly below 10000 ng/mL in concentration at 40 min; Condition met otherwise

Consider the worked cases shown below.
CC[n+]1c(SCC2=C(C(=O)[O-])N3C(=O)C(NC(=O)/C(=N\OC(C)(C)C(=O)O)c4csc(N)n4)C3SC2)nc(N)c(C)c1N (stereo not drawn) ... Condition met
CC[n+]1c(N)cc(N)nc1SCC1=C(C(=O)[O-])N2C(=O)C(NC(=O)/C(=N\OC(C)(C)C(=O)O)c3csc(N)n3)C2SC1 (stereo not drawn) ... Condition not met
C[n+]1c(N)cc(N)nc1SCC1=C(C(=O)[O-])N2C(=O)C(NC(=O)/C(=N\OC(C)(C)C(=O)O)c3csc(N)n3)[C@H]2SC1 (stereo partly drawn) ... Condition met
CCO/N=C(\C(=O)NC1C(=O)N2C(C(=O)[O-])=C(CSc3nc(N)cc(N)[n+]3N)CSC12)c1csc(N)n1 (stereo not drawn) ... Condition met

Record Cc1c(N)nc(SCC2=C(C(=O)[O-])N3C(=O)C(NC(=O)/C(=N\OC(C)(C)C(=O)O)c4csc(N)n4)C3SC2)[n+](N)c1N (stereo not drawn) ; criterion: concentration at 40 min no lower than 10000 ng/mL. Met?
Condition met
